test: E. coli acrAB mutant growth effects, primary screen, E. coli filamentation inducers, strain DRC39, OD650, 48 h (AID 1179);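 also: screen aims at cell division blockers that make cells filament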; conditions: E. coli DRC39 delta-acrAB growth, higher = more signal, called active from +8 up or from −8 down
I'd appreciate it if you could supply z-score values for the items below.
Lab note: record the figure alone, no unit after it.

z-score lookup needed for Cc1ccc(S[C@]2(C(=O)NCCN3CCOCC3)CC(=O)N(Cc3ccccc3C(F)(F)F)[C@@H]2c2ccc(CO)cc2I)cc1 , thanks.
0.0559

Same for O=C1O[C@@H](c2ccccc2)[C@@H](c2ccccc2)N2[C@@H](c3ccc(O)cc3)[C@]3(C(=O)Nc4ccc(C#CCCO)cc43)[C@@H](C(=O)Nc3nc4ccccc4s3)[C@H]12
0.282

Same for COCCCNC(=O)[C@@]1(Sc2ccc(C)cc2)CC(=O)N(Cc2cc(C(F)(F)F)cc(C(F)(F)F)c2)[C@@H]1c1ccc(CO)cc1
0.231

Same for [N-]=[N+]=NCc1ccccc1C[C@@]1(C(N)=O)N=C(c2ccc(OCCCO)cc2)O[C@@H]1c1ccccc1CN=[N+]=[N-]
0.041

Same for COC(=O)[C@@]1(Cc2ccc(F)cc2)[C@H]2c3cc(C(=O)N4CCCC4)n(CCF)c3C[C@H]2CN1C(=O)c1ccccc1
-0.311
